# system: E. coli UDP-N-acetylglucosamine enolpyruvoyl transferase, MurA (Escherichia coli, UniProt P0A749)
# Sequence (P0A749 whole entry): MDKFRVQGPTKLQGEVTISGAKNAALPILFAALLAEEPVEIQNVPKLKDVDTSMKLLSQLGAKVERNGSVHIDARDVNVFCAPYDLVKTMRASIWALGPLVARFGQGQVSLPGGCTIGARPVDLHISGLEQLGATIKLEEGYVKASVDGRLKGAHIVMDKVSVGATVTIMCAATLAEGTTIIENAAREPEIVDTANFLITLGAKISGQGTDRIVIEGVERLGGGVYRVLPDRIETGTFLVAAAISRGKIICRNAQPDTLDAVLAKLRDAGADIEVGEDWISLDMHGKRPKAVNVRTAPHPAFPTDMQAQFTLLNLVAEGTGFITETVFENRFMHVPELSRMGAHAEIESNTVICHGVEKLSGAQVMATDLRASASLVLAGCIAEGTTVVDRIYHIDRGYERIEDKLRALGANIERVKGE
experimental-readout: pIC50
Here pIC50 is given on a logarithmic scale as minus log10 of the concentration in mol/L.

molecule=O=C1O/C(=C\c2ccc(-c3ccccc3)cc2)C(O)=C1c1ccc(Cl)c(Cl)c1 data_value=5.13
molecule="O=C1O/C(=C\\c2ccc(-c3ccccc3)cc2)C(O)=C1c1cc(Cl)cc(Cl)c1 [Example 67]" data_value=5.13
molecule=O=C1O/C(=C\c2cccc(C(F)(F)F)c2)C(O)=C1c1cccc(-c2ccccc2)c1 data_value=4.33
molecule=O=C1O/C(=C\c2cc(C(F)(F)F)ccc2Cl)C(O)=C1c1ccc(-c2ccccc2)cc1 data_value=5.04

Entry CCCc1ccc(-c2ccc(C3=C(O)/C(=C/c4cc(C(F)(F)F)ccc4Cl)OC3=O)cc2)cc1 , pIC50 reported as 5.08
